Entries and their In vitro Dox release (%) from CC49-Dox at 37° C. in 50% mouse serum: 2 h
System: CC49-TCO-Dox
protocol-text: In vitro Dox release from CC49-TCO-Dox in 50% mouse serum
Format: biochemical
test-context: 2 h
test-readout: In vitro Dox release (%) from CC49-Dox at 37° C. in 50% mouse serum: 2 h

molecule	measurement
Cc1nnc(C)nn1 [Compound 2.1, 3,6-dimethyl-1,2,4,5-tetrazine]	68.7
Cc1nnc(-c2ccccn2)nn1 [Compound 3.1, 3-(2-pyridyl)-6-methyl-1,2,4,5-tetrazine]	57.1
O=C(O)CN1CCN(CC(=O)O)CCN(CC(=O)NCCOCCOCCOCCOCCOCCOCCOCCOCCOCCOCCOCCNC(=O)CCCC(=O)Nc2ccc(-c3nnc(-c4ccccn4)nn3)nc2)CCN(CC(=O)O)CC1 [Compound 5.1]	15.2
O=C(O)CN1CCN(CC(=O)O)CCN(CC(=O)NCCOCCNC(=O)CCCC(=O)NCCCc2nnc(CCCNC(=O)CCCC(=O)NCCOCCNC(=O)CN3CCN(CC(=O)O)CCN(CC(=O)O)CCN(CC(=O)O)CC3)nn2)CCN(CC(=O)O)CC1 [Compound 5.3, Tz-bis-DOTA]	54.9

* * *

protocol-text: In vitro tetrazine stability (decrease of UV absorbance at 520 nm)
Assay type: physicochemical
test-context: 10% MeCN/PBS; read-out: In vitro tetrazine stability (h), t1/2 (converted)
test-readout: half-life (h)

> print(dat)
                                   compound  unit.tag  measurement
1  COCCOCCOCCOCCOCCOCCOCCOCCOCCOCCOCC(=O)NCCCc1nnc(-c2ncccn2)nn1         h           13
2    Cc1nnc(-c2nccc(CNC(=O)OC(C)(C)C)n2)nn1         h           12
3              Cc1nnc(-c2nccc(C(=O)O)n2)nn1         h            6
4                              Cc1nnc(C)nn1         h           14
5  Cc1nnc(-c2nccc(CNC(=O)CN(CCN(CC(=O)O)CC(=O)O)CC(=O)O)n2)nn1         h           13
6                     Cc1nnc(-c2nccnc2C)nn1         h           15
7                      Cc1nnc(-c2cnccn2)nn1         h           16
8  Cc1nnc(-c2ncccn2)nn1 [Compound 4.1, reference compound]         h           10

* * *

Tested on: CC49-TCO-Dox
protocol-text: In vitro Dox release from CC49-TCO-Dox in 50% mouse serum
Assay type: biochemical
test-context: 3 h
Form field: In vitro Dox release (%) from CC49-Dox at 37° C. in 50% mouse serum: 3 h (one value per entry).
test-readout: In vitro Dox release (%) from CC49-Dox at 37° C. in 50% mouse serum: 3 h

smi	measurement
O=C(O)CN1CCN(CC(=O)O)CCN(CC(=O)NCCOCCOCCOCCOCCOCCOCCOCCOCCOCCOCCOCCNC(=O)CCCC(=O)Nc2ccc(-c3nnc(-c4ccccn4)nn3)nc2)CCN(CC(=O)O)CC1	14.8
Cc1nnc(-c2ccccn2)nn1	59.6
Cc1nnc(C)nn1	69.7
O=C(O)CN1CCN(CC(=O)O)CCN(CC(=O)NCCOCCNC(=O)CCCC(=O)NCCCc2nnc(CCCNC(=O)CCCC(=O)NCCOCCNC(=O)CN3CCN(CC(=O)O)CCN(CC(=O)O)CCN(CC(=O)O)CC3)nn2)CCN(CC(=O)O)CC1	64.4
